Molecular target: human gpr-54 receptor (human, UniProt Q969F8 1-398)
Sequence (Q969F8 whole entry): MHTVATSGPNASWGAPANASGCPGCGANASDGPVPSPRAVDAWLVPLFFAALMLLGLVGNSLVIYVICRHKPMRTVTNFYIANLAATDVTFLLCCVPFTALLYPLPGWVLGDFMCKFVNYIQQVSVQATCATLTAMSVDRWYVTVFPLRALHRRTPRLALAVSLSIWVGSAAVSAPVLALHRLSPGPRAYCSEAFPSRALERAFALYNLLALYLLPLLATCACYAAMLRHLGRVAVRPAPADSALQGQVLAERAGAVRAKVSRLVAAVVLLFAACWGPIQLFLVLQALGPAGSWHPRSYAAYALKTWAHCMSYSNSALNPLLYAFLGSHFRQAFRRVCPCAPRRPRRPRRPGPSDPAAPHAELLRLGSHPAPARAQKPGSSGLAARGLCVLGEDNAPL
Assay: cell-based or functional assay
Non-standard residues stand in square brackets, D forms with d. No end group written: not given here.
quantity: Inhibition of IP stimulation by 10nM Agonist: % Inhibition of Max (%)

For orientation, consider the following solved cases.
>>> measured_result("Ac-YNWNGFG[dW]RF-NH2 (SMILES CC(=O)N[C@@H](Cc1ccc(O)cc1)C(=O)N[C@@H](CC(N)=O)C(=O)N[C@@H](Cc1c[nH]c2ccccc12)C(=O)N[C@@H](CC(N)=O)C(=O)NCC(=O)N[C@@H](Cc1ccccc1)C(=O)NCC(=O)N[C@H](Cc1c[nH]c2ccccc12)C(=O)N[C@@H](CCCNC(=N)N)C(=O)N[C@@H](Cc1ccccc1)C(N)=O, kisspeptin-10 analogue; also called acYNWNGFG[(D)-W]RF) [228]")
58
>>> measured_result("Ac-[dY]NWNG[dW]G[dW]RF-NH2 (SMILES CC(=O)N[C@H](Cc1ccc(O)cc1)C(=O)N[C@@H](CC(N)=O)C(=O)N[C@@H](Cc1c[nH]c2ccccc12)C(=O)N[C@@H](CC(N)=O)C(=O)NCC(=O)N[C@H](Cc1c[nH]c2ccccc12)C(=O)NCC(=O)N[C@H](Cc1c[nH]c2ccccc12)C(=O)N[C@@H](CCCNC(=N)N)C(=O)N[C@@H](Cc1ccccc1)C(N)=O) [245]")
66
>>> measured_result("Ac-[dA]NWNGFGL[dR]F-NH2 [278]")
47
>>> measured_result("Ac-FG[dL]RW-NH2 [191]")
79
>>> measured_result("YNWNSFGLRW-NH2 (kisspeptin-10 analogue) [187]")
36

1: Ac-FGL[dR]W-NH2 (not fully specified, kisspeptin-10 analogue; also called acFGL[(D)-R]W) [200]
2: Ac-[dY][dN]WNGFGWRF-NH2 [240]
Lab log: flag the item ( 1 or 2 ) with the smaller Inhibition of IP stimulation by 10nM Agonist: % Inhibition of Max figure. Return value: the label identifying the chosen record.
2
